Hey, just so you know, these numbers are from patent EP4039268A1.

ASSAYED_TARGET: T1, monomeric SARS-CoV-2 receptor binding domain (RBD-H6) (SARS-CoV-2, UniProt P0DTC2 319-541)
T1 construct: Made in HEK293-6E cells; also called RBD Spike; monomeric RBD
PROTOCOL_DESCRIPTION: ELISA screen
Listed here are binders together with their documented Mean normalized OD.
READOUT_KIND: Mean normalized OD (OD)

{"BINDER": "Siglec12 CRD-mouse IgG2a-Fc fusion protein (Fc fusion) PQEVFTLNVERKVVVQEGLCVLVPCNFSYLKKRLTDWTDSDPVHGFWYREGTDRRKDSIVATNNPIRKAVKETRNRFFLLGDPWRNDCSLNIREIRKKDAGLYFFRLERGKTKYNYMWDKMGGGSGGGSGGGS", "OBS_VALUE": -0.021}
{"BINDER": "Atrnl1 CRD-mouse IgG2a-Fc fusion protein (Fc fusion) VGDACLRINSSRESYDNAKLYCYNLSGNLASLTTSKEVEFVLDEIQKFTQQKVSPWVGLRKINISYWGWEDMSPFTNTSLQWLPGEPNDSGFCAYLERAAVAGLKANPCTSMADGLVCEGGGSGGGSGGGS", "OBS_VALUE": 0.001}
{"BINDER": "Cd207 CRD-mouse IgG2a-Fc fusion protein (Fc fusion) FSGNFYYFSRTPKTWYSAEQFCISRKAHLTSVSSESEQKFLYKAADGIPHWIGLTKAGSEGDWYWVDQTSFNKEQSRRFWIPGEPNNAGNNEHCANIRVSALKCWNDGPCDNTFLFICKGGGSGGGSGGGS", "OBS_VALUE": 0.118}
{"BINDER": "Cd72 CRD-mouse IgG2a-Fc fusion protein (Fc fusion) CCPCGWIPYQERCFYISHTLGSLEESQKYCTSLSSKLAAFDEPSKYYYEVSLPSGLEELLDRSKSYWIQMSKKWRQDSDSQSRHCVRIKTYYQKWERTISKCAELHPCICESGGGSGGGSGGGS", "OBS_VALUE": 0.015}
